Data origin, for the record: ChEMBL document CHEMBL4387709

Assignment: determine reported selectivity ratio for the given molecules.
Test: Selectivity index, ratio of CC50 for human RD cells to EC50 for Enterovirus D68 US/KY/14-18953 infected in human RD cells
Assay type: toxicity, cell-based
Conditions: read-out: Ratio CC50/EC50

Fill blank: measured selectivity ratio of the molecule CCN(CC)CCCNC(=O)c1cc(-c2ccccc2)nc2ccccc12 is ____.
4.7

And then CN(C)CCNC(=O)c1cc(-c2ccccc2)nc2ccc(Cl)cc12 , what is it?
11.9

And then CCN(CC)CCNC(=O)c1cc(-c2cnc(N(C)C)nc2)nc2ccccc12 , what is it?
3

And then N=C(N)N [GUANIDINE] , what is it?
> 1.4

And then CCN(CC)CCNC(=O)c1cc(-c2ccc(COC)cc2)nc2ccccc12 , what is it?
2.7

And then CCN(CC)CCNC(=O)c1cc(/C=C/c2ccccc2)nc2ccccc12 , what is it?
14.4

And then CN(C)c1ccc(NC(=O)c2cc(-c3ccccc3)nc3ccccc23)cc1 , what is it?
> 3.5

And then CCN(CC)CCNC(=O)c1cc(OC)nc2ccccc12 , what is it?
> 4.8

And then CCN(CC)CCNC(=O)c1cc(-c2ccccc2)nc2ccc(OC)cc12 , what is it?
2.2

And then CCN(CC)CCNC(=O)c1cc(OC2CCCC2)nc2ccccc12 , what is it?
1.7

And then COc1ccc2nc(-c3ccccc3)cc(C(=O)NCCN(C)C)c2c1 , what is it?
3.9

And then CN(C)CCCNC(=O)c1cc(-c2ccccc2)nc2ccccc12 , what is it?
12.8

And then CN(C)CCNC(=O)c1cc(-c2ccccc2)nc2ccc(F)cc12 , what is it?
64.7

* * *

System: HeLa
Test: Cytotoxicity against human HeLa cells after 3 days by neutral red dye-based photometric method
Assay type: cell-based
Conditions: 72 h
measured-metric: CC50 (µM)
Answer format: numeric, µM implied, no suffix.

Fill blank: measured CC50 of the compound CCCCOc1cc(C(=O)NCCN(CC)CC)c2ccccc2n1 [DIBUCAINE] is ____.
36

And then CN(C)CCNC(=O)c1cc(-c2cccs2)nc2ccccc12 , what is it?
51.2

And then CN(C)CCNC(=O)c1cc(-c2ccccc2)nc2ccccc12 , what is it?
68.7

And then O=C(NCCN1CCCC1)c1cc(-c2cccs2)nc2ccccc12 , what is it?
41.7

* * *

System: enterovirus D68
Assay: Antiviral activity against Enterovirus D68 US/MO/14-18947 infected in human SH-SY5Y cells assessed as inhibition of virus-induced cytopathic effect incubated for 5 mins under shaking condition and measured after 3 days by neutral red dye-based photometric method
Type: functional, organism-based
Conditions: Enterovirus D, US/MO/14-18947, SH-SY5Y
Assignment: determine reported EC50 for the given compounds.
Answer format: numeric, nM implied, no suffix.

Fill blank: measured EC50 of the compound CN(C)CCNC(=O)c1cc(-c2cccs2)nc2ccccc12 is ____.
10

And then CCCCOc1cc(C(=O)NCCN(CC)CC)c2ccccc2n1 , what is it?
1900

And then O=C(NCCN1CCCC1)c1cc(-c2cccs2)nc2ccccc12 , what is it?
20

And then CN(C)CCNC(=O)c1cc(-c2ccccc2)nc2ccccc12 , what is it?
200

* * *

Assay: Selectivity index, ratio of CC50 for human RD cells to EC50 for Enterovirus D68 US/MO/14-18947 infected in human RD cells
Format: toxicity, cell-based
Conditions: read-out: Ratio CC50/EC50
measured-metric: selectivity ratio
I'd appreciate a reply containing only the number, no unit.

Fill blank: measured selectivity ratio of the compound O=C(NCCN1CCCC1)c1cc(-c2cccs2)nc2ccccc12 is ____.
667

* * *

Tested on: enterovirus D68
Assay: Antiviral activity against Enterovirus D68 US/KY/14-18953 infected in human RD cells assessed as inhibition of virus-induced cytopathic effect incubated for 5 mins under shaking condition and measured after 3 days by neutral red dye-based photometric method
Assay type: functional, organism-based
Details: Enterovirus D, US/KY/14-18953, RD
measured-metric: pEC50
API: returns pEC50 as number; meaning -log10 of concentration in mol/L.

Fill blank: measured pEC50 of the molecule CN(C)CCNC(=O)c1cc(-c2ccccc2)nc2ccc(Cl)cc12 is ____.
5.92

And then CN(C)CCCNC(=O)c1cc(-c2cccs2)nc2ccccc12 , what is it?
6.15

And then CCN(CC)CCNC(=O)c1cc(OC2CCCC2)nc2ccccc12 , what is it?
5.17

And then CCN(CC)CCNC(=O)c1cc(-c2ccc(COC)cc2)nc2ccccc12 , what is it?
4.76

And then CCN(CC)CCNC(=O)c1cc(OCc2ccccc2)nc2ccccc12 , what is it?
5.96

And then CCN(CC)CCNC(=O)c1cc(OC(C)C)nc2ccccc12 , what is it?
5.60

And then COc1ccc2nc(-c3ccccc3)cc(C(=O)NCCN(C)C)c2c1 , what is it?
5.09

And then CN(C)CCCNC(=O)c1cc(-c2ccccc2)nc2ccccc12 , what is it?
5.46

And then CCN(CC)CCNC(=O)c1cc(-c2cnc(N(C)C)nc2)nc2ccccc12 , what is it?
4.61

And then N=C(N)NC(=O)c1cc(-c2ccccc2)nc2ccccc12 , what is it?
4.46

And then CCN(CC)CCNC(=O)c1cc(-c2ccn[nH]2)nc2ccccc12 , what is it?
4.71

* * *

Assay: Selectivity index, ratio of CC50 for human RD cells to EC50 for Enterovirus D68 US/KY/14-18953 infected in human RD cells
Type: toxicity, cell-based
Details: read-out: Ratio CC50/EC50
measured-metric: selectivity ratio
I'd appreciate a reply containing only the number, no unit.

Fill blank: measured selectivity ratio of the molecule CC(C)Oc1cc(C(=O)NCCN2CCN(C)CC2)c2ccccc2n1 is ____.
3.4

And then CN(C)CCCNC(=O)c1cc(-c2cccs2)nc2ccccc12 , what is it?
57.9

And then CC(C)Oc1cc(C(=O)NCCN(C)C)c2ccccc2n1 , what is it?
22.6

And then CCN(CC)CCNC(=O)c1cc(-c2ccnn2C)nc2ccccc12 , what is it?
3.7

And then CC(C)Oc1cc(C(=O)NCCN2CCCC2)c2ccccc2n1 , what is it?
21.7

* * *

Assignment: determine reported selectivity ratio for the given compounds.
Test: Selectivity index, ratio of CC50 for human RD cells to EC50 for Enterovirus D68 US/KY/14-18953 infected in human RD cells
Assay type: toxicity, cell-based
Conditions: read-out: Ratio CC50/EC50
I'd appreciate a reply containing only the number, no unit.

Fill blank: measured selectivity ratio of the compound CCN(CC)CCNC(=O)c1cc(OCC(F)(F)F)nc2ccccc12 is ____.
9.5

And then CCN(CC)CCNC(=O)c1cc(-c2ccn[nH]2)nc2ccccc12 , what is it?
6.8

And then CCN(CC)CCNC(=O)c1cc(-c2ccc(OC)cc2)nc2ccccc12 , what is it?
13.2

And then O=C(NCCN1CCCC1)c1cc(-c2ccccc2)nc2ccccc12 , what is it?
117

And then CCC(C)Oc1cc(C(=O)NCCN(CC)CC)c2ccccc2n1 (stereo unspecified) , what is it?
5.6

And then CCN(CC)CCNC(=O)c1cc(OCc2ccccc2)nc2ccccc12 , what is it?
12.3

And then CCN(CC)CCNC(=O)c1cc(-c2cccc(OC)c2)nc2ccccc12 , what is it?
22.8

And then CCN(CC)CCNC(=O)c1cc(-c2ccoc2)nc2ccccc12 , what is it?
81.7

And then CC(C)Oc1cc(C(=O)NCCN)c2ccccc2n1 , what is it?
42.5

* * *

Assay: Cytotoxicity against human RD cells after 3 days by neutral red dye-based photometric method
Assay type: cell-based
Conditions: RD cells
measured-metric: CC50 at 72 h

Fill blank: measured CC50 at 72 h of the compound N=C(N)N is ____.
> 300 µM

* * *

Test: Selectivity index, ratio of CC50 for human A172 cells to EC50 for Enterovirus D68 US/KY/14-18953 infected in human A172 cells
Assay type: toxicity, cell-based
Conditions: read-out: Ratio CC50/EC50
measured-metric: selectivity ratio
I'd appreciate a reply containing only the number, no unit.

Fill blank: measured selectivity ratio of the molecule O=C(NCCN1CCCC1)c1cc(-c2cccs2)nc2ccccc12 is ____.
1310

* * *

System: SH-SY5Y
Test: Cytotoxicity against human SH-SY5Y cells after 3 days by neutral red dye-based photometric method
Format: cell-based
Settings: 72 h
measured-metric: CC50 (µM)
Answer format: numeric, µM implied, no suffix.

Fill blank: measured CC50 of the molecule CN(C)CCNC(=O)c1cc(-c2cccs2)nc2ccccc12 is ____.
136

And then O=C(NCCN1CCCC1)c1cc(-c2cccs2)nc2ccccc12 , what is it?
93.3
